- experimentalParameters: 328.15 K; 101.33 kPa; Liquid
Lab note - cut at 400 mPa·s for viscosity: Fulfilled if strictly below, Not fulfilled if not.

>>> label("CCCCCCn1cc[n+](CCC#N)c1.O=C([O-])c1cccc(S(=O)(=O)O)c1 [3-(2-cyanoethyl)-1-hexyl-1H-imidazolium 3-sulfobenzoate]")
"Not fulfilled"
>>> label("CCCCCCn1cc[n+](CCC#N)c1.O=S(=O)([O-])c1ccccc1 [3-(2-cyanoethyl)-1-hexyl-1H-imidazolium benzenesulfonate]")
"Fulfilled"

Consider CCCCC(CC)COC(=O)CC(C(=O)OCC(CC)CCCC)S(=O)(=O)[O-].CCCCCC[n+]1ccn(CCC#N)c1 (stereo not given) . Does its viscosity lie strictly below 400 mPa·s?
Not fulfilled

What would you report for CCCCCCCCCCCCOS(=O)(=O)[O-].CCCCCCn1cc[n+](CCC#N)c1 [3-(2-cyanoethyl)-1-hexyl-1H-imidazolium dodecyl sulfate] ?
Not fulfilled

What would you report for `CCCCCCn1cc[n+](CCC#N)c1.O=S(=O)([O-])C(F)(F)F` ?
Fulfilled

Every entry's value here was drawn from the NIST ThermoML archive (doi:10.1021/je101316g).
